Biological target: T1, human GIP receptor (human, UniProt P48546 22-466)
T1 construct: whole, on cells; also called hGIPR; hGIP-R
T1 sequence (looked up): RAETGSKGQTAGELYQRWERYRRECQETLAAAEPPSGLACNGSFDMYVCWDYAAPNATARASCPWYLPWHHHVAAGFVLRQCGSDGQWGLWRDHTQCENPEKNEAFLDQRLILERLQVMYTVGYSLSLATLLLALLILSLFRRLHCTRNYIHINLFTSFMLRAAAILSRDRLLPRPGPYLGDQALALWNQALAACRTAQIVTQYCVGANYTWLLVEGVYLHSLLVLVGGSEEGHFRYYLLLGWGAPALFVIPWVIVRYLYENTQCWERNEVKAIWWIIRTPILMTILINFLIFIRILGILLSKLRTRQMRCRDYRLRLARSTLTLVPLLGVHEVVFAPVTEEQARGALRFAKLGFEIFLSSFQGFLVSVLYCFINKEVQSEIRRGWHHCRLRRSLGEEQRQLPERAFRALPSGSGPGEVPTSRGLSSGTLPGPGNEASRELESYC
Assay: [125I]-GIP competition SPA, hGIPR membranes
Numbered stars: 1 amine (or outer) side, 2 acyl side, 3 side chain; on linkers, the order of the positions; unused ones are H or OH. Square brackets hold non-standard residues; d marks the D form. Side chains are listed from the residue outwards. Ends that are not written are not given here. * marks the point of attachment. C20 diacid = O=C(O)CCCCCCCCCCCCCCCCCCC(=O)*; γGlu = O=C(O)[C@H](CCC(=O)[*:2])N[*:1]; AEEA = NCCOCCOCC(=O)O; Aib = CC(C)(N)C(=O)O
Label rule met when Ki is strictly below 0.05 nM; at or above that, label rule not met.

QUERY: Lab note: confirm whether the reported Ki for this binder is below 0.05 nM, equality not counting. binder: YXEGTXTSDLSIXLDXKAQXEFIXXLIEGGPSSGAPPPS (Aib2; αMeF(2F)6; αMeL13; Orn16; K17((2-[2-(2-Amino-ethoxy)-ethoxy]-acetyl)2-(γ-Glu)-CO-(CH2)16-CO2H); Aib20; D-Glu24; αMeY25; C-terminal NH2) [Example 238]
RESULT: rule met

QUERY: Let us now turn to F[Aib]EGTFTSDYSILLDKK([AEEA-AEEA-γGlu-C20 diacid])AQ[Aib]AFIEYLIEGGPSSGAPPPS-NH2 [Example 326]
RESULT: rule not met

QUERY: Let us now turn to YXEGTXTSDYSIXLDXKAQXEFIXYLIEGGPSSGAPPPS (Aib2; αMeF(2F)6; Aib13; Orn16; K17((2-[2-(2-Amino-ethoxy)-ethoxy]-acetyl)2-(γ-Glu)-CO-(CH2)18-CO2H); Aib20; D-Glu24; C-terminal NH2) [Example 250]
RESULT: rule met

QUERY: Let us now turn to YXEGTFTSDYSIXLDKKAQXEFIEYLIAGGPSSGAPPPS (Aib2; αMeL13; K17((2-[2-(2-Amino-ethoxy)-ethoxy]-acetyl)2-(γ-Glu)-CO-(CH2)18-CO2H); Aib20; C-terminal NH2, also called GG-731) [Example 289]
RESULT: rule met

QUERY: Let us now turn to XXEGTXTSDYSIXLDKKAQXAFIEYLIEGGPSSGAPPPS (D-Tyr1; Aib2; αMeF(2F)6; αMeL13; K17((2-[2-(2-Amino-ethoxy)-ethoxy]-acetyl)2-(γ-Glu)-CO-(CH2)18-CO2H); Aib20; C-terminal NH2) [Example 336]
RESULT: rule met

QUERY: Let us now turn to YXEGTXTSDVSIXLDXKAQXTFIXXLIEGGPSSGAPPPS (Aib2; αMeF(2F)6; αMeL13; Orn16; K17((2-[2-(2-Amino-ethoxy)-ethoxy]-acetyl)2-(γ-Glu)-CO-(CH2)16-CO2H); Aib20; D-Glu24; αMeY25; C-terminal NH2) [Example 241]
RESULT: rule met

QUERY: Let us now turn to XXEGTFTSDYSIXLDKKAQXEFIEXLIAGGPSSGAPPPS (D-Tyr1; Aib2; αMeL13; K17((2-[2-(2-Amino-ethoxy)-ethoxy]-acetyl)2-(γ-Glu)-CO-(CH2)18-CO2H); Aib20; αMeY25; C-terminal NH2) [Example 292]
RESULT: rule not met

QUERY: Let us now turn to XXEGTFTSDYSIXLDXKAQXAFIXYLIAGGPSSGAPPPS (D-Tyr1; Aib2; αMeL13; Orn16; K17((2-[2-(2-Amino-ethoxy)-ethoxy]-acetyl)2-(γ-Glu)-CO-(CH2)18-CO2H); Aib20; D-Glu24; C-terminal NH2) [Example 291]
RESULT: rule not met

QUERY: Let us now turn to XXEGTFTSDYSIXLDXKAQXEFIEYLIAGGPSSGAPPPS (D-Tyr1; Aib2; αMeL13; Orn16; K17((2-[2-(2-Amino-ethoxy)-ethoxy]-acetyl)2-(γ-Glu)-CO-(CH2)18-CO2H); Aib20; C-terminal NH2) [Example 349]
RESULT: rule not met

QUERY: Let us now turn to YXEGTXTSDYSILLDEKAQXEFIXYLIEGGPSSGAPPPS (Aib2; αMeF(2F)6; K17((2-[2-(2-Amino-ethoxy)-ethoxy]-acetyl)2-(γ-Glu)-CO-(CH2)18-CO2H); Aib20; D-Glu24; C-terminal NH2) [Example 226]
RESULT: rule met

QUERY: Let us now turn to XXEGTFTSDYSIXLDKKAQXEFIEYLIAGGPSSGAPPPS (D-Tyr1; Aib2; αMeL13; K17((2-[2-(2-Amino-ethoxy)-ethoxy]-acetyl)2-(γ-Glu)-CO-(CH2)18-CO2H); Aib20; C-terminal NH2) [Example 290]
RESULT: rule not met

QUERY: Let us now turn to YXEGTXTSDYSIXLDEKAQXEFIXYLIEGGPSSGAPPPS (Aib2; αMeF(2F)6; αMeL13; K17((2-[2-(2-Amino-ethoxy)-ethoxy]-acetyl)2-(εK)-CO-(CH2)18-CO2H); Aib20; D-Glu24; C-terminal NH2) [Example 216]
RESULT: rule not met

QUERY: Let us now turn to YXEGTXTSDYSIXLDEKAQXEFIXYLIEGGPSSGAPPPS (Aib2; αMeF(2F)6; αMeL13; K17((2-[2-(2-Amino-ethoxy)-ethoxy]-acetyl)2-(γ-Glu)-CO-(CH2)16-CO2H); Aib20; D-Glu24; C-terminal NH2) [Example 221]
RESULT: rule met

QUERY: Let us now turn to YXEGTXTSDXSIXLDXKAQXTFIXXLIEGGPSSGAPPPS (Aib2; αMeF(2F)6; 4Pal10; αMeL13; Orn16; K17((2-[2-(2-Amino-ethoxy)-ethoxy]-acetyl)2-(γ-Glu)-CO-(CH2)16-CO2H); Aib20; D-Glu24; αMeY25; C-terminal NH2) [Example 239]
RESULT: rule not met

QUERY: Let us now turn to YXEGTFTSDYSIXLDKKAQXAFIEYLIAGGPSSGAPPPS (Aib2; αMeL13; K17((2-[2-(2-Amino-ethoxy)-ethoxy]-acetyl)2-(γ-Glu)-CO-(CH2)18-CO2H); Aib20; C-terminal NH2) [Example 324]
RESULT: rule met

QUERY: Let us now turn to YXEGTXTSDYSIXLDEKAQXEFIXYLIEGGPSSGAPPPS (Aib2; αMeF(2F)6; αMeL13; K17((2-[2-(2-Amino-ethoxy)-ethoxy]-acetyl)2-CO-(CH2)18-CO2H); Aib20; D-Glu24; C-terminal NH2) [Example 215]
RESULT: rule not met

QUERY: Let us now turn to XXEGTFTSDYSIXLDXKAQXAFVXYLIAGGPSSGAPPPS (D-Tyr1; Aib2; αMeL13; Orn16; K17((2-[2-(2-Amino-ethoxy)-ethoxy]-acetyl)2-(γ-Glu)-CO-(CH2)18-CO2H); Aib20; D-Glu24; C-terminal NH2) [Example 362]
RESULT: rule not met

QUERY: Let us now turn to YXEGTXTSDXSIXLDXKAQXEFIXXLIEGGPSSG (Aib2; αMeF(2F)6; 4Pal10; αMeL13; Orn16; K17((2-[2-(2-Amino-ethoxy)-ethoxy]-acetyl)2-(γ-Glu)-CO-(CH2)16-CO2H); Aib20; D-Glu24; αMeY25; C-terminal NH2) [Example 264]
RESULT: rule met

QUERY: Let us now turn to YXEGTXTSDXSIXLDXKAQXEFIXYLIEGGPSSGAPPPS (Aib2; αMeF(2F)6; 4Pal10; αMeL13; Orn16; K17((2-[2-(2-Amino-ethoxy)-ethoxy]-acetyl)2-(γ-Glu)-CO-(CH2)16-CO2H); Aib20; D-Glu24; C-terminal NH2) [Example 232]
RESULT: rule not met

QUERY: Let us now turn to YXEGTFTSDYSIXLDEKAQXAFIEYLIEGGPSSG (Aib2; αMeL13; K17((2-[2-(2-Amino-ethoxy)-ethoxy]-acetyl)2-(γ-Glu)-CO-(CH2)16-CO2H); Aib20; C-terminal NH2) [Example 303]
RESULT: rule not met

QUERY: Let us now turn to YXEGTXTSDYSILLDKKAQXAFIEYLIEGGPSSG (Aib2; αMeF6; K17((2-[2-(2-Amino-ethoxy)-ethoxy]-acetyl)2-(γ-Glu)-CO-(CH2)16-CO2H); Aib20; C-terminal NH2, also called GG-650) [Example 301]
RESULT: rule met

QUERY: Let us now turn to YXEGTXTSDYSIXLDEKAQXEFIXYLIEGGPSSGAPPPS (Aib2; αMeF6; Aib13; K17((2-[2-(2-Amino-ethoxy)-ethoxy]-acetyl)2-(γ-Glu)-CO-(CH2)18-CO2H); Aib20; D-Glu24; C-terminal NH2) [Example 225]
RESULT: rule not met

QUERY: Let us now turn to YXEGTXTSDXSIXLDXKAQXEFIXXLIEGG (Aib2; αMeF(2F)6; 4Pal10; αMeL13; Orn16; K17((2-[2-(2-Amino-ethoxy)-ethoxy]-acetyl)2-(γ-Glu)-CO-(CH2)16-CO2H); Aib20; D-Glu24; αMeY25; C-terminal NH2) [Example 265]
RESULT: rule met
